Items are presented alongside their recorded MIC.
System: Pseudomonas aeruginosa
Assay: In vitro antibacterial activity, M.I.C. by serial twofold dilution method on Mueller-Hinton agar
Format: cell-based
Conditions: Pseudomonas aeruginosa, 8 strains; pH 7.2; reading 18 h after incubation at 37°C; read-out: nX̄ = MIC mean values of sensitive strains
Use µg/mL as the unit, but write only the number.

Item Smiles: CCn1cc(C(=O)O)c(=O)c2cc(F)c(N3CCNCC3)cc21
Tested System: Pseudomonas aeruginosa
Measurement Label: MIC
Numeric Value: 1.42
//
Item Smiles: CCn1cc(C(=O)O)c(=O)c2cnc(N3CCCC3)nc21
Tested System: Pseudomonas aeruginosa
Measurement Label: MIC
Numeric Value: 38.7
//
Item Smiles: CCn1cc(C(=O)O)c(=O)c2cnc(N3CCNCC3)nc21
Tested System: Pseudomonas aeruginosa
Measurement Label: MIC
Numeric Value: 12.3
//
Item Smiles: CCn1cc(C(=O)O)c(=O)c2cc(F)c(-n3cccc3)cc21
Tested System: Pseudomonas aeruginosa
Measurement Label: MIC
Numeric Value: 5.6
//
Item Smiles: CCn1cc(C(=O)O)c(=O)c2ccc(C)nc21
Tested System: Pseudomonas aeruginosa
Measurement Label: MIC
Numeric Value: 5.46

Proceed to the following item.
Qu. Return MIC for the following compound: `CCn1cc(C(=O)O)c(=O)c2cc(F)c(N3CCCC3)cc21`
Ans. 9.87
